# ASSAYED_TARGET: Stromelysin-2 (Homo sapiens)
# Sequence (P09238 whole entry): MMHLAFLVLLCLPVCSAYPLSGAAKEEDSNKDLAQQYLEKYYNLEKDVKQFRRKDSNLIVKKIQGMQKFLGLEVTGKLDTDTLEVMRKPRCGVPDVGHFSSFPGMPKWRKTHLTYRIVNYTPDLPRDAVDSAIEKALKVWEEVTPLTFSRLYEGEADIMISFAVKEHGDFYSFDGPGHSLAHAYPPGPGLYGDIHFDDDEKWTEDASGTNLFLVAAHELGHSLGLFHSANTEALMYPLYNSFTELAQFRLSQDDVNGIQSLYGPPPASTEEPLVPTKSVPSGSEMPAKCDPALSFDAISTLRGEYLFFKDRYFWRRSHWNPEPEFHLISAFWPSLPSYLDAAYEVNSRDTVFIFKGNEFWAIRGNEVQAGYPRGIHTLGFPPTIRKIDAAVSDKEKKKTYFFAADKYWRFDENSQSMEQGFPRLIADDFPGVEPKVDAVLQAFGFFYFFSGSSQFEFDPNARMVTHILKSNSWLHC
# ASSAY_INFO: Inhibition of human recombinant MMP-10 using […]-Pro-Lys-Pro-Val-Glu-Nval-Trp-Arg-Lys(Dnp)-NH2 as substrate preincubated for 30 mins followed by substrate addition by fluorescence based analysis
Listed here are compounds together with their documented IC50.
Enter your answer as a number in µM; do not include the unit.

record_smiles=Cc1cc(CNC(=O)c2nc3ccc(F)c(OCCF)c3c(=O)[nH]2)ccc1F assayed_target="Stromelysin-2 (Homo sapiens)" readout_name=IC50 value_measured=3.1

Please report IC50 for the following compound: COc1ccc(CCOc2c(F)ccc3nc(C(=O)NCc4ccc(F)c(C)c4)[nH]c(=O)c23)cc1
9.1

Report IC50 for COc1ccc(CNC(=O)c2nc3ccc(F)c(OCCc4ccc(O)cc4)c3c(=O)[nH]2)cc1
6.8

Please give measured IC50 of the following entry: COc1cccc(CNC(=O)c2nc3ccc(F)c(OCCc4ccc(C(=O)O)cc4)c3c(=O)[nH]2)c1
3.2

Supply measured IC50 of COc1ccc(CNC(=O)c2nc3ccc(F)c(OCCc4ccc(C(=O)O)cc4)c3c(=O)[nH]2)cc1 in your reply.
2.7

Origin of the recorded values: ChEMBL document CHEMBL5338774
